Sourced from patent US9464064B2

Consider the following compounds; for each one, report its Inh. (%) (Inhibition).
- tested.target: HCV NS3 helicase NS3h_1b(con1) (Hepatitis C virus genotype 1b, UniProt Q9WMX2)
- Construct: truncated C-terminally His-tagged NS3 proteins lacking the N-terminal protease, called NS3h; His-tag (C); made in house
- Sequence (Q9WMX2 1192-1657): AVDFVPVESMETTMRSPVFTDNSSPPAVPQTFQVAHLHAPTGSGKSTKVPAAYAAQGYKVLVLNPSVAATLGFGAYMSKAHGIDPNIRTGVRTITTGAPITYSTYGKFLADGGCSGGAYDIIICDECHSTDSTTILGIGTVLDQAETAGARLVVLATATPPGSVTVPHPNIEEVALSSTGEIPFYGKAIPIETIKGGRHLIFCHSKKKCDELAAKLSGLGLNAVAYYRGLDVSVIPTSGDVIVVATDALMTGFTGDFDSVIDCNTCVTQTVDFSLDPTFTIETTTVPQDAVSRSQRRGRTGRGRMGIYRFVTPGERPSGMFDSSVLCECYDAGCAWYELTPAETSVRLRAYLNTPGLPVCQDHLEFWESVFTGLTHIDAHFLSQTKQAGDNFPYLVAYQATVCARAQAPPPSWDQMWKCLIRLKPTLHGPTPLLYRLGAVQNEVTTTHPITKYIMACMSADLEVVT
- method.summary: MBHA screen of NCI mechanistic set library at 20 μM (percent inhibition, compound interference)
- Format: biochemical
- experimental.context: compounds at 20 μM, MBHA with a DNA substrate; calculated from Equation 1
Numbers only, in %.

Go through the items and report each one's Inh. (%) (Inhibition).
1. C[C@H]1CCC/C=C/[C@@H]2C[C@H](O)C[C@H]2[C@H](O)/C=C/C(=O)O1 [Compound 89671]
2. COc1ccc(C2C=C(c3ccc4c(c3)OCO4)Oc3c2c(=O)oc2ccccc32)cc1OC (stereo not drawn) [Compound 211489]
3. CC[C@]1(O)C[C@@H]2CN(CCc3c([nH]c4ccccc34)[C@@](C(=O)OC)(c3cc4c(cc3OC)N(C)[C@H]3[C@@](O)(C(=O)OC)[C@H](OC(C)=O)[C@]5(CC)C=CCN6CC[C@]43[C@@H]65)C2)C1.O=S(=O)(O)O [Compound 49842]
4. COc1nc(C(Cl)(Cl)Cl)c(Cl)c(OC)c1Cl [Compound 338720]
5. COc1ccc(C[C@@H]2NC[C@@H](O)[C@@H]2OC(C)=O)cc1.Cl [Compound 147340]

["−5.9", "−30.1", 9.9, 7.0, "−5.2"]

For the compound CO[C@@H]1C[C@](C)(O)Cc2cc3c(c(O)c21)C(=O)c1c(O)cc2c(c1C3=O)O[C@@H]1O[C@@]2(C)[C@H](O)[C@@H](N(C)C)[C@@H]1O [Compound 269148] , give its measured Inh. (%) (Inhibition) value.
−4.1
